- assay target: S. pyogenes SKKanGAS, kanamycin survival, BacTiterGlo, 6 h
- test summary: S. pyogenes SKKanGAS kanamycin growth inhibitors – SKKanGAS strain, luminescence, dose confirmation, streptokinase promoter inhibitor project, dose response (AID 1902);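 further: lower survival reflects blocked streptokinase promoter driving kanamycin resistance gene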
The source made the active and inactive calls.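 How the source made its calls: active means EC50 no more than a set limit of log units above the highest dose; inactive means the rest.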
Labels: 1 (active), 0 (inactive)

>>> classification("COc1ccc2oc(C(=O)Nc3nc(-c4ccccn4)cs3)c(C)c2c1")
1
>>> classification("O=C(Nc1ccccc1)Nc1cc(Cl)cc(Cl)c1")
1
>>> classification("CC(C)CN(Cc1cc(=O)oc2cc3c(cc12)CCCC3)CC(C)C")
1
>>> classification("COC(=O)c1ccc(/C=C/c2ccc3cccc(OC(C)=O)c3n2)cc1")
1
>>> classification("O=C(NC(=S)N1CCN(c2ccc(F)cc2)CC1)C12CC3CC(CC(C3)C1)C2")
1
>>> classification("COc1ccc(N=C2NN=C(c3c(C)[nH]c4ccccc34)CS2)cc1")
1
>>> classification("O=C(c1cccs1)N1N=C(c2ccccc2)CC1c1ccccc1 (stereo not given)")
1
>>> classification("O=C(N/N=C/c1cc([N+](=O)[O-])ccc1O)/C(=C\\c1cccs1)NC(=O)c1ccccc1")
1
>>> classification("CCCN(CC(=O)Nc1cc(Cl)cc(Cl)c1)CC(=O)Nc1ccc(F)c(F)c1F")
1
>>> classification("Clc1ccc(-c2cc3ccccc3nc2N2CCCC2)cc1")
1
>>> classification("O=C(c1ccccc1Cl)N1CCN(S(=O)(=O)c2cccs2)CC1")
0
>>> classification("COc1ccc(C2=NOC(CNC(N)=S)C2)cc1 (stereo not given)")
1
>>> classification("Oc1ccc(/C=N/N(Cc2ccccc2)c2ccccc2)cc1")
1
>>> classification("CCOc1ccc(-n2c(C)cc(/C=C3/C(=N)N4C(=NC3=O)SN=C4S(C)(=O)=O)c2C)cc1")
1
>>> classification("CC(C)C(Sc1nc(-c2ccccc2)cc(-c2ccccc2)c1C#N)C(=O)O (stereo not given)")
1
>>> classification("COc1ccc(N=Nc2cc(-c3ccccc3)ccc2O)cc1")
1
>>> classification("Cc1csc(Nc2ccc(Cl)cc2)[n+]1-c1ccc(Cl)cc1")
1
>>> classification("O=c1cc(N2CCCCC2)c(-c2ccccc2)nn1Cc1ccc(Cl)cc1Cl")
1
>>> classification("CCOC(=O)c1sc2ncnc(NCC(c3cccs3)N(C)C)c2c1C (stereo not given)")
1
>>> classification("O=S(=O)(Nc1cccc2c1CCCC2)c1ccc(Cl)cc1")
1
>>> classification("O=C(CN1CCc2ccccc2C1)Nc1ccccc1N1CCCCCC1")
1
>>> classification("Cc1cc(Oc2ccc(-c3ccccc3)cc2)nc(N2CCOCC2)n1")
1
>>> classification("CCC(C(=O)NCC1CCCO1)n1nc(C)c2sc3ccccc3c2c1=O (stereo not given)")
0
>>> classification("CCCCn1c(SCC(=O)c2ccccc2)nc2c1c(=O)[nH]c(=O)n2C")
1
>>> classification("O=C(Nc1nnc(-c2ccncc2)o1)c1ccc(Br)s1")
1
>>> classification("CCOc1ccc2c(c1)c1nnc(SCC(=O)N3CCC(C)CC3)nc1n2C")
1
>>> classification("c1ccc(-c2nc(C3CCCCC3)c3ccccc3n2)cc1")
1
>>> classification("CCOc1ccc2[nH]c3c(N4CCc5ccccc5C4)ncnc3c2c1")
1
>>> classification("O=C1NC(=Nc2ccc(Cl)cc2)SC1Cc1cccc(Cl)c1Cl (stereo not given)")
1
>>> classification("Oc1c(Cl)cc(Cl)c(Cl)c1Cc1c(O)c(Cl)cc(Cl)c1Cl")
1
>>> classification("Oc1c(Br)cc(Br)cc1Oc1ccc(Br)cc1Br")
1
>>> classification("CC12CCC(CC1)C(C)(C)O2")
0
>>> classification("N=C(N)c1ccc(/C=C/c2ccc(C(=N)N)cc2O)cc1")
1
>>> classification("Cc1ccc(OCC(=O)NNC(=S)NC(=O)c2ccc(Br)o2)c(C)c1")
1
>>> classification("O=C1CCSc2ccc(Cl)cc2N1Cc1ccc(Cl)cc1")
1
>>> classification("Cc1nnc(SCC2=C(C(=O)O)N3C(=O)C(NC(=O)c4cccc(F)c4F)C3SC2)s1 (stereo not given)")
1
>>> classification("c1ccc(Nc2nc3ccccc3[nH]2)nc1")
1
>>> classification("O=C1CC(N(CCc2ccccc2)C(=S)Nc2ccccc2)C(=O)N1c1ccc(Br)cc1 (stereo not given)")
1
>>> classification("CCOC(=O)c1cnn(-c2nc(-c3ccccc3F)cs2)c1C(F)(F)F")
1
>>> classification("Cc1cccc(CS(=O)(=O)c2nnc([C@H](Cc3ccccc3)NC(=O)OC(C)(C)C)o2)c1")
1
>>> classification("CCCCCCCCCCCCCCCC[N+](C)(C)CC")
1
>>> classification("CC(C)c1nc(N2CCCC2)c(C#N)c2c1CCCC2")
1
>>> classification("COc1ccc(-c2c(C(F)(F)F)[nH]n3c(=O)cc(-c4ccccc4)nc23)cc1")
1
>>> classification("Cc1sc2nc(-c3ccccn3)[nH]c(=O)c2c1-c1ccccc1")
1
>>> classification("COc1ccc(C(NC(C)=O)c2cc(Cl)c3cccnc3c2O)cc1OC (stereo not given)")
1

Reference for the values: PubChem BioAssay AID1902
